Provide the recorded inhibition for the entries that follow.
target: SRSF protein kinase 3 (Homo sapiens) (UniProt Q9UPE1); conditions: at 1 µM;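 further: values are mean inhibition of MSSK1 (alias of SRPK3)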
Sequence (Q9UPE1 whole entry): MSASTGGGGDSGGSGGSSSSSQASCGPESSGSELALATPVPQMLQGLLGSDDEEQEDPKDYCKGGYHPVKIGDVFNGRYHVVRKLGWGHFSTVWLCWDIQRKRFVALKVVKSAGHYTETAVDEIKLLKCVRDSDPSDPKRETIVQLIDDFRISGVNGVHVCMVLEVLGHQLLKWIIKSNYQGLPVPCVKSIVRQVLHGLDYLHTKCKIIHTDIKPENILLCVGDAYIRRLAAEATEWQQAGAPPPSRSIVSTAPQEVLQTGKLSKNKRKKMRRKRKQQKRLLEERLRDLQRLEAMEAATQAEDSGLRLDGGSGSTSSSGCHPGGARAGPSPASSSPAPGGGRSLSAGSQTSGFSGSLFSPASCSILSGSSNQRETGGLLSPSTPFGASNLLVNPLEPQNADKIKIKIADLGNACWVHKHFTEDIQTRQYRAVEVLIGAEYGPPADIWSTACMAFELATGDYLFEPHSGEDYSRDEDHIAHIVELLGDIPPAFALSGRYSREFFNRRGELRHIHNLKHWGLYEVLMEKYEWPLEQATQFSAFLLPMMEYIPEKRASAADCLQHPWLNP
Answer with a number only, understood to be in %.

COc1cccc(-n2ncc3c(N/N=C/c4ccc(F)cc4)ncnc32)c1 on SRSF protein kinase 3 (Homo sapiens) (UniProt Q9UPE1) gives inhibition = 1.02

CC(=O)NCc1cccc(C#Cc2cncnc2Nc2ccc(OCc3cccc(F)c3)c(Cl)c2)c1 on SRSF protein kinase 3 (Homo sapiens) (UniProt Q9UPE1) gives inhibition = -1.8

Cc1ccc2c(-c3ccnc(Nc4ccccc4)n3)c(-c3ccc(F)cc3)nn2n1 on SRSF protein kinase 3 (Homo sapiens) (UniProt Q9UPE1) gives inhibition = 1.53

COC(=O)Nc1nc2ccc(Oc3ccc(NC(=O)Nc4cccc(Cl)c4)cc3)cc2[nH]1 on SRSF protein kinase 3 (Homo sapiens) (UniProt Q9UPE1) gives inhibition = 1.25

CCc1nn2ncccc2c1-c1ccnc(NC2CC2)n1 on SRSF protein kinase 3 (Homo sapiens) (UniProt Q9UPE1) gives inhibition = -0.47

Fc1cccc(COc2ccc(Nc3ncnc4sc(-c5ccco5)cc34)cc2Cl)c1 on SRSF protein kinase 3 (Homo sapiens) (UniProt Q9UPE1) gives inhibition = 1.38

CCn1c(-c2nonc2N)nc2c(C#CC(C)(C)O)ncc(OC3CCNCC3)c21 on SRSF protein kinase 3 (Homo sapiens) (UniProt Q9UPE1) gives inhibition = -1.64

Fc1ccc(-c2nn3ccccc3c2-c2ccncc2)cc1 on SRSF protein kinase 3 (Homo sapiens) (UniProt Q9UPE1) gives inhibition = 1.26

* * *

Target: Sphingosine kinase 2 (Homo sapiens);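 further: values reported as mean percent inhibition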
Sequence (whole entry): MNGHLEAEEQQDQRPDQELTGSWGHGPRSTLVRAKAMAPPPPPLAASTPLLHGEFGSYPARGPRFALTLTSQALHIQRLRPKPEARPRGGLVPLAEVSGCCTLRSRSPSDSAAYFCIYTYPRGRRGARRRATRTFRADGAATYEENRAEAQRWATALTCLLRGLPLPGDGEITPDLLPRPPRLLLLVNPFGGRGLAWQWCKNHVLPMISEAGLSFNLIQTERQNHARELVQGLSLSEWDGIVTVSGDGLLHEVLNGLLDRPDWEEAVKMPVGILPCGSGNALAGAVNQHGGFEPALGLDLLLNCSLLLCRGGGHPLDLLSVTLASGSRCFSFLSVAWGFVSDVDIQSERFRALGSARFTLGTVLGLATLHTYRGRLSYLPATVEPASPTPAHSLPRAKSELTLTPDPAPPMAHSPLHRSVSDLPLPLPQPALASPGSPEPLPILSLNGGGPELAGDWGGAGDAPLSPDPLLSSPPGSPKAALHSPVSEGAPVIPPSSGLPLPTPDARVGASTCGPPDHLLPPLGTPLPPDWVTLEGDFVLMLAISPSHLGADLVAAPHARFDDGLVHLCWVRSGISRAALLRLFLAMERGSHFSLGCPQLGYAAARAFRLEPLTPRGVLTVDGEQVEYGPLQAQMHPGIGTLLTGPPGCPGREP
Details: at 0.1 µM
Provide the recorded inhibition for the entries that follow.
Answer with a number only, understood to be in %.

According to the records, this molecule CCn1c(-c2nonc2N)nc2c(C#CC(C)(C)O)ncc(OC3CCNCC3)c21 displays inhibition of -2.62

According to the records, this molecule CCc1nn2ncccc2c1-c1ccnc(NC2CC2)n1 displays inhibition of 0

According to the records, this molecule Nc1nc(-c2ccc(F)cc2)c(-c2ccc3ncccc3n2)s1 displays inhibition of -1.13

According to the records, this molecule COc1cc2ncn(-c3cc(OCc4ccccc4C(F)(F)F)c(C(=O)N(C)C)s3)c2cc1OC displays inhibition of 0.13

According to the records, this molecule Fc1ccc(-c2nn3ncccc3c2-c2ccnc(Nc3ccc4c(c3)OCCO4)n2)cc1 displays inhibition of 0

According to the records, this molecule CS(=O)(=O)CCNCc1coc(-c2ccc3ncnc(Nc4ccc(OCc5ccccc5)cc4)c3c2)c1 displays inhibition of 0

According to the records, this molecule COC(=O)Nc1nc2ccc(Oc3ccc(NC(=O)Nc4cccc(Cl)c4)cc3)cc2[nH]1 displays inhibition of 0

According to the records, this molecule CCOc1ccc2c(-c3ccnc(Nc4cccc(C(F)(F)F)c4)n3)cnn2n1 displays inhibition of 2.38

According to the records, this molecule N#Cc1c(NC(=O)c2ccc(F)cc2)sc2c1CCCC2 displays inhibition of 0.33

According to the records, this molecule FC(F)(F)c1cccc(-c2nn3ncccc3c2-c2ccnc(Nc3ccc4c(c3)OCCO4)n2)c1 displays inhibition of 0.13

According to the records, this molecule COc1ccc(-c2nn3ncccc3c2-c2ccnc(Nc3ccc4c(c3)OCCO4)n2)cc1 displays inhibition of -0.07

According to the records, this molecule N#Cc1c(NC(=O)CN2CCOCC2)sc2c1CCCC2 displays inhibition of 1.39

According to the records, this molecule COc1cc(N2CCN(C(C)C)CC2)ccc1Nc1nc(Nc2ccc(F)cc2C(N)=O)c2cc[nH]c2n1 displays inhibition of -0.73

According to the records, this molecule CCN(CC)S(=O)(=O)c1ccc(OC)c(Nc2ncc(-c3ccccc3)o2)c1 displays inhibition of -1.48

According to the records, this molecule COc1cc(Nc2nccc(Nc3ccc4c(C)n[nH]c4c3)n2)cc(OC)c1OC displays inhibition of -1.28

According to the records, this molecule [O-][S+]1CCN(Cc2ccc(-c3ccc4ncnc(Nc5ccc(OCc6cccc(F)c6)c(Cl)c5)c4c3)o2)CC1 displays inhibition of 4.71

According to the records, this molecule COc1ccc2[nH]c3c4[nH]c5ccc(OC)cc5c4c4c(c3c2c1)C(=O)NC4=O displays inhibition of -2.46

According to the records, this molecule CN1CCC(n2cnc(-c3ccc(F)cc3)c2-c2ccnc(N)n2)CC1 displays inhibition of 0

According to the records, this molecule CCn1cc(-c2ccnc3[nH]ccc23)c(-c2cccc(NC(=O)Nc3ccc(OCc4ccccc4)cc3)c2)n1 displays inhibition of -0.83

According to the records, this molecule CCNC(=O)O[C@H]1CN[C@H](C#Cc2cc3ncnc(Nc4ccc(OCc5cccc(F)c5)c(Cl)c4)c3s2)C1 displays inhibition of 0.52

According to the records, this molecule CCn1c(-c2nonc2N)nc2cnc(Oc3cccc(NC(=O)c4ccc(N(C)C)cc4)c3)cc21 displays inhibition of 0

According to the records, this molecule Clc1ccc(-c2nn3ncccc3c2-c2ccnc(Nc3ccccc3)n2)cc1 displays inhibition of -0.19

According to the records, this molecule COC(=O)c1sc(-n2cnc3cc(OC)c(OC)cc32)cc1OCc1ccccc1C(F)(F)F displays inhibition of 0.14

According to the records, this molecule Cc1cccc2c1NC(=O)/C2=N\Nc1ccc(S(N)(=O)=O)cc1 displays inhibition of -0.11
